- target-of-assay: PRMT5/MEP50 complex (Homo sapiens, UniProt O14744)
- Construct: purchased Reaction Biology Corporation
- Sequence (O14744 2-637 limits assumed): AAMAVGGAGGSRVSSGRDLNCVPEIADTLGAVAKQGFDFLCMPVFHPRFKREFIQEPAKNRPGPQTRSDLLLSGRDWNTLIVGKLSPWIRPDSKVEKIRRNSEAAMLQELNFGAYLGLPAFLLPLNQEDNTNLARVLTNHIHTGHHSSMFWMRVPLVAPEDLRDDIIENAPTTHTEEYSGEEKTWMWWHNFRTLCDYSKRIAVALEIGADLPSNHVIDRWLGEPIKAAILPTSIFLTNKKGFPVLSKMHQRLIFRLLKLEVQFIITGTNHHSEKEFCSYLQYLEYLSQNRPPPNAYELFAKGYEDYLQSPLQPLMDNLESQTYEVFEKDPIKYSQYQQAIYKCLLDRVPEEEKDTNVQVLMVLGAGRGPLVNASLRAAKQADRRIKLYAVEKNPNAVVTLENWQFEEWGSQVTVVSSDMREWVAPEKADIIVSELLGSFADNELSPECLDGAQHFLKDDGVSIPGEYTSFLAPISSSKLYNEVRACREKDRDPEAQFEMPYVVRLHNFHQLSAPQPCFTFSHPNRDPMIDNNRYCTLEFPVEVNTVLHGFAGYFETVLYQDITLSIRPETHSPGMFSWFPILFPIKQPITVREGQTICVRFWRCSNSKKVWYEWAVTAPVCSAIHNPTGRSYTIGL
- Sequence (Q9BQA1 2-342 partner limits assumed): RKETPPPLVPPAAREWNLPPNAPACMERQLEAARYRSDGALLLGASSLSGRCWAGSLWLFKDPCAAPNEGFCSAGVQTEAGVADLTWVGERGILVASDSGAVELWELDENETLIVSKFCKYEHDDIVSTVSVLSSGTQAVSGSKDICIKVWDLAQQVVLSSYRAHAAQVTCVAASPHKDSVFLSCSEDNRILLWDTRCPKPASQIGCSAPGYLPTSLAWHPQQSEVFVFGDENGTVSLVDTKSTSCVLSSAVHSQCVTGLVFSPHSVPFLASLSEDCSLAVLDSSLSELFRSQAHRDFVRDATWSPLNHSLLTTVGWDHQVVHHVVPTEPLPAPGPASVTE
- test-method-notes: PRMT5:MEP50 HotSpot Assay (full-length histone H2A substrate, plus and minus MTA)
- Assay type: biochemical
- experimental-conditions: IC50 + 2 μM MTA, in the presence of 2 μM MTA
value-kind: IC50 (nM)

// known answers, use as guide
molecule	result-unit	IC50
Cn1ncc(-c2cc(Cl)c3c(=O)[nH]nc(CN)c3c2)c1-c1c(F)c(Cl)c2ccccc2c1C#N (single isomer, unassigned) [Example 16-57]	nM	253
Cn1ncc(-c2ccc3c(=O)[nH]nc(CN)c3c2)c1-c1c(F)c(Cl)cc(CC2CC2)c1C#N (single isomer, unassigned) [Example 16-126]	nM	29
Cn1ncc(-c2ccc3c(=O)[nH]nc(CN)c3c2)c1-c1c(Cl)c(Cl)cc(OC2CC2)c1C#N (single isomer, unassigned) [Example 16-123]	nM	4000

(A) Cc1cc(OC2CC2)c(C#N)c(-c2c(-c3cc(Cl)c4c(=O)[nH]nc(CN)c4c3)cnn2C)c1F (single isomer, unassigned) [Example 16-25]
(B) Cn1ncc(-c2ccc3c(=O)[nH]nc(CN)c3c2)c1-c1c(F)cc2ncc(Cl)cc2c1C#N (single isomer, unassigned) [Example 16-32]
Inquiry: Of the two listed items, A and B , which carries the larger IC50 figure? Lab log: write the label of the selected item as the result.
Reply text: A

(a) Cn1ncc(-c2ccc3c(=O)[nH]nc(CN)c3c2)c1-c1c(F)cc2c(c1C#N)OCCC2 (atropisomer, axis not shown; (M)) [Example 16-38]
(b) Cn1ncc(-c2ccc3c(=O)[nH]nc(CN)c3c2)c1-c1c(F)cc2c(c1C#N)OCCO2 (single isomer, unassigned) [Example 16-90]
Inquiry: Between a and b , which one shows the smaller IC50 number? Lab log: write the label of the selected item as the result.
Reply text: a
(a: 83.8 nM, b: 248 nM)
